Just for reference, PubChem BioAssay AID1963422 is where these values come from.

Give viability, T/C for every item shown.
- Test system: 463943-066-T-J2-PDC complex spheroid growth
- experiment notes: Anticancer human tumor 463943-066-T-J2-PDC patient-derived colon adenocarcinoma cell line growth inhibition [Asc]
- condition: second compound 0.316 µM; first compound 0.03 µM; stronger effect = lower value
Express your answer in %, writing the number without its unit.

System 463943-066-T-J2-PDC complex spheroid growth. Read-out viability, T/C. Item NC(=O)C(=Cn1cnc(-c2cc(C(F)(F)F)cc(C(F)(F)F)c2)n1)c1cncnc1 + CNC(C)C(=O)NC1CN(S(=O)(=O)c2cccc(S(=O)(=O)N3CCC4CCC(C(=O)NC(c5ccccc5)c5ccccc5)N4C(=O)C(NC(=O)C(C)NC)C3)c2)CCC2CCC(C(=O)NC(c3ccccc3)c3ccccc3)N2C1=O . Report value. 78.9

Provide 463943-066-T-J2-PDC complex spheroid growth viability, T/C reading for Cc1nc(N2CCC3(CC2)COC(C)C3N)c(CO)nc1Sc1ccnc(N)c1Cl (configuration not stated) + Cc1c(S(C)(=O)=O)c(-c2cc(F)cc(N3CCN(c4ccc(NS(=O)(=O)c5ccc(NC(CCN6CCC(C(=O)OCCCP(=O)(O)O)CC6)CSc6ccccc6)c(S(=O)(=O)C(F)(F)F)c5)cc4)CC3)c2)c(-c2ccc(Cl)cc2)n1C(C)C . 85.1

* * *

Can you tell me pIC50 for the items I'm about to list?
- Tested on: 463943-066-T-J2-PDC complex spheroid growth
- experiment notes: Anticancer human tumor 463943-066-T-J2-PDC cell line growth inhibition [Asc];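 note: compound exposure lasted 7 days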
- condition: curve of first compound; second compound 0.1 µM
pIC50: −log10 of the molar value.

Read off the recorded pIC50 for CCN1CCN(Cc2ccc(Nc3ncc(F)c(-c4cc(F)c5nc(C)n(C(C)C)c5c4)n3)nc2)CC1 + CNC(C)C(=O)NC1CN(S(=O)(=O)c2cccc(S(=O)(=O)N3CCC4CCC(C(=O)NC(c5ccccc5)c5ccccc5)N4C(=O)C(NC(=O)C(C)NC)C3)c2)CCC2CCC(C(=O)NC(c3ccccc3)c3ccccc3)N2C1=O < 6.00

Dear colleague, please send me the reported pIC50 for C#Cc1c(F)ccc2cc(O)cc(-c3ncc4c(N5CC6CCC(C5)N6)nc(OCC56CCCN5CC(F)C6)nc4c3F)c12 (stereo not drawn) + Cc1c(S(C)(=O)=O)c(-c2cc(F)cc(N3CCN(c4ccc(NS(=O)(=O)c5ccc(NC(CCN6CCC(C(=O)OCCCP(=O)(O)O)CC6)CSc6ccccc6)c(S(=O)(=O)C(F)(F)F)c5)cc4)CC3)c2)c(-c2ccc(Cl)cc2)n1C(C)C when you can. < 5.00

Quickly give me recorded pIC50 for NC(=O)C(=Cn1cnc(-c2cc(C(F)(F)F)cc(C(F)(F)F)c2)n1)c1cncnc1 + Cc1c(S(C)(=O)=O)c(-c2cc(F)cc(N3CCN(c4ccc(NS(=O)(=O)c5ccc(NC(CCN6CCC(C(=O)OCCCP(=O)(O)O)CC6)CSc6ccccc6)c(S(=O)(=O)C(F)(F)F)c5)cc4)CC3)c2)c(-c2ccc(Cl)cc2)n1C(C)C < 6.52

* * *

- Tested on: 463943-066-T-J2-PDC complex spheroid growth
- experiment notes: Anticancer human tumor 463943-066-T-J2-PDC cell line growth inhibition [Asc];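 note: compound exposure lasted 7 days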;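 for viability, T/C: 100% = DMSO vehicle control wells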
- condition: second compound 0.03 µM; first compound 3.16 µM; stronger effect = lower value
Can you tell me viability, T/C for the items I'm about to list?

Query viability, T/C for C=CC(=O)N1CCN(c2nc(=O)n(-c3c(C)ccnc3C(C)C)c3nc(-c4c(O)cccc4F)c(F)cc23)C(C)C1 (centres undefined) + CCN1C(C(=O)NC23CCC(C(=O)O)(CC2)CC3)C(c2cccc(Cl)c2F)C2(C(=O)Nc3cc(Cl)ccc32)C12CCCCC2 104%

For the compound C=C(F)C(=O)N1CCN(c2nc(OCC3CCCN3C)nc3c2CCN(c2cccc4cccc(Cl)c24)C3)CC1CC#N (centres undefined) + CCN1C(C(=O)NC23CCC(C(=O)O)(CC2)CC3)C(c2cccc(Cl)c2F)C2(C(=O)Nc3cc(Cl)ccc32)C12CCCCC2 , report viability, T/C. 97.3%

For the compound O=C(c1cc(Cc2n[nH]c(=O)c3ccccc23)ccc1F)N1CCN(C(=O)C2CC2)CC1 + CCN1C(C(=O)NC23CCC(C(=O)O)(CC2)CC3)C(c2cccc(Cl)c2F)C2(C(=O)Nc3cc(Cl)ccc32)C12CCCCC2 , report viability, T/C. 96.9%

Give me measured viability, T/C, please, for this compound: C#Cc1c(F)ccc2cc(O)cc(-c3ncc4c(N5CC6CCC(C5)N6)nc(OCC56CCCN5CC(F)C6)nc4c3F)c12 (centres undefined) + CCN1C(C(=O)NC23CCC(C(=O)O)(CC2)CC3)C(c2cccc(Cl)c2F)C2(C(=O)Nc3cc(Cl)ccc32)C12CCCCC2 103%
